Biological target: von Hippel-Lindau disease tumor suppressor/Bromodomain-containing protein 7 (Homo sapiens) (UniProt Q9NPI1+P40337)
Sequence (P40337 whole entry, looked up): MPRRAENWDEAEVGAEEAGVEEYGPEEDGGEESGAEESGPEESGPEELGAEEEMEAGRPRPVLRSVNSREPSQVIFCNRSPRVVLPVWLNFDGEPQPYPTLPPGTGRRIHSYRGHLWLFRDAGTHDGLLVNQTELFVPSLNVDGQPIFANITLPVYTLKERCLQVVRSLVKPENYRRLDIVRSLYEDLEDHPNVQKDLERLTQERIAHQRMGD
Sequence (Q9NPI1 whole entry, looked up): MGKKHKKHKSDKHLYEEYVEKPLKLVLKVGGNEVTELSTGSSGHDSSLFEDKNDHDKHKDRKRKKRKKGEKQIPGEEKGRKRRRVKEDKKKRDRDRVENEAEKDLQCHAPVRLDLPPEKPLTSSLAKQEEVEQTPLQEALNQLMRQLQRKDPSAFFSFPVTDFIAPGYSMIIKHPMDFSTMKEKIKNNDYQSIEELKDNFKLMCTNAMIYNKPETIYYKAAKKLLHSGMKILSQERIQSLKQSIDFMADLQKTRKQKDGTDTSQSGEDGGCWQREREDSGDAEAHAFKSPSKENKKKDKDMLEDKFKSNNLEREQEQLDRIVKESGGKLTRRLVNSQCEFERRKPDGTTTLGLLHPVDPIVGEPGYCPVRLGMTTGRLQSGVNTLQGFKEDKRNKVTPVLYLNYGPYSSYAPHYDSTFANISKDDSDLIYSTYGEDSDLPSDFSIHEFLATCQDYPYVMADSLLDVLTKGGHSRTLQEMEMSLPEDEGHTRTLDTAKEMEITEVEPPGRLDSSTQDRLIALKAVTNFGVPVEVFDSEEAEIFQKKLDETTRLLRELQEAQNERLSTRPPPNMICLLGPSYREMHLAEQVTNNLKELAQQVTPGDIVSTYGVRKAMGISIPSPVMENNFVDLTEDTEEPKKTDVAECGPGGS
Assay: PROTAC activity at VHL/BRD7 in human HeLa cells assessed as remaining BRD7 protein level at 1 uM incubated for 4 hrs by Western blot analysis relative to control
Type: cell-based
assay-readout: Activity (%)

Solved entries:
- smiles-text: "COc1cc(-c2cn(C)c(=O)c3cnccc23)c(OC)cc1CN1CC(NC(=O)COCCOc2cc(-c3scnc3C)ccc2CNC(=O)[C@@H]2C[C@@H](O)CN2C(=O)[C@@H](NC(=O)C2(F)CC2)C(C)(C)C)C1"
  assay-readout: "Activity"
  experimental-result: 158
- smiles-text: "COc1cc(-c2cn(C)c(=O)c3cnccc23)cc(OC)c1CN1CCN(CCOCCOCCOc2cc(-c3scnc3C)ccc2CNC(=O)[C@@H]2C[C@@H](O)CN2C(=O)[C@@H](NC(=O)C2(F)CC2)C(C)(C)C)CC1"
  assay-readout: "Activity"
  experimental-result: 7

[P] COc1cc(-c2cn(C)c(=O)c3cnccc23)cc(OC)c1CN1CCN(CCOCCOc2cc(-c3scnc3C)ccc2CNC(=O)[C@@H]2C[C@@H](O)CN2C(=O)[C@@H](NC(=O)C2(F)CC2)C(C)(C)C)CC1
[Q] COc1cc(-c2cn(C)c(=O)c3cnccc23)cc(OC)c1CN1CCN(CCOCCOCCOCCOc2cc(-c3scnc3C)ccc2CNC(=O)[C@@H]2C[C@@H](O)CN2C(=O)[C@@H](NC(=O)C2(F)CC2)C(C)(C)C)CC1
[R] COc1cc(-c2cn(C)c(=O)c3cnccc23)cc(OC)c1CN(C)C
In this exercise, place the 3 molecules in ascending sequence of their recorded Activity. Your answer should be the labels, listed in the requested order.
P, R, Q
(P: 8%, R: 90%, Q: 182%)

* * *

Biological target: von Hippel-Lindau disease tumor suppressor/Bromodomain-containing protein 7 (Homo sapiens) (UniProt Q9NPI1+P40337)
Experiment: PROTAC activity at VHL/BRD7 in human HeLa cells assessed as remaining BRD7 protein level at 1 uM incubated for 4 hrs by Western blot analysis relative to control
Type: cell-based
assay-readout: Activity (%)

- smiles-text: "COc1cc(-c2cn(C)c(=O)c3cnccc23)cc(OC)c1CN1CC(NC(=O)COCCOc2cc(-c3scnc3C)ccc2CNC(=O)[C@@H]2C[C@@H](O)CN2C(=O)[C@@H](NC(=O)C2(F)CC2)C(C)(C)C)C1"
  Activity, %: 29

[P] COc1cc(-c2cn(C)c(=O)c3cnccc23)cc(OC)c1CN1CC(NC(=O)CCCCOCCOc2cc(-c3scnc3C)ccc2CNC(=O)[C@@H]2C[C@@H](O)CN2C(=O)[C@@H](NC(=O)C2(F)CC2)C(C)(C)C)C1
[Q] COc1cc(-c2cn(C)c(=O)c3cnccc23)cc(OC)c1CN1CC(NC(=O)COCCOCCOc2cc(-c3scnc3C)ccc2CNC(=O)[C@@H]2C[C@@H](O)CN2C(=O)[C@@H](NC(=O)C2(F)CC2)C(C)(C)C)C1
Which record shows the lower Activity: the first, P , or the second, Q ? Give the label under which the chosen entry appears.
P
(P: 31%, Q: 53%)

* * *

Biological target: von Hippel-Lindau disease tumor suppressor/Bromodomain-containing protein 7 (Homo sapiens) (UniProt Q9NPI1+P40337)
Assay: PROTAC activity at VHL/BRD7 in human Ri-1 cells assessed as remaining BRD7 protein level at 1 uM incubated for 2 hrs by Western blot analysis relative to control
Assay type: cell-based
assay-readout: Activity (%)

- smiles-text: "COc1cc(-c2cn(C)c(=O)c3cnccc23)c(OC)cc1CN1CC(NC(=O)COCCOCCOCCOc2cc(-c3scnc3C)ccc2CNC(=O)[C@@H]2C[C@@H](O)CN2C(=O)[C@@H](NC(=O)C2(F)CC2)C(C)(C)C)C1"
  units: "%"
  Activity: 85
- smiles-text: "COc1cc(-c2cn(C)c(=O)c3cnccc23)cc(OC)c1CN1CC(NC(=O)COCCOCCOc2cc(-c3scnc3C)ccc2CNC(=O)[C@@H]2C[C@@H](O)CN2C(=O)[C@@H](NC(=O)C2(F)CC2)C(C)(C)C)C1"
  units: "%"
  Activity: 92
- smiles-text: "COc1cc(-c2cn(C)c(=O)c3cnccc23)c(OC)cc1CN1CCN(CCOCCOc2cc(-c3scnc3C)ccc2CNC(=O)[C@@H]2C[C@@H](O)CN2C(=O)[C@@H](NC(=O)C2(F)CC2)C(C)(C)C)CC1"
  units: "%"
  Activity: 98
